# system: human V1a receptor (Homo sapiens)
# Construct: expressed in transfected cells; host or cells: HEK293 cells, transiently transfected; cell membranes
# Sequence (P37288 whole entry): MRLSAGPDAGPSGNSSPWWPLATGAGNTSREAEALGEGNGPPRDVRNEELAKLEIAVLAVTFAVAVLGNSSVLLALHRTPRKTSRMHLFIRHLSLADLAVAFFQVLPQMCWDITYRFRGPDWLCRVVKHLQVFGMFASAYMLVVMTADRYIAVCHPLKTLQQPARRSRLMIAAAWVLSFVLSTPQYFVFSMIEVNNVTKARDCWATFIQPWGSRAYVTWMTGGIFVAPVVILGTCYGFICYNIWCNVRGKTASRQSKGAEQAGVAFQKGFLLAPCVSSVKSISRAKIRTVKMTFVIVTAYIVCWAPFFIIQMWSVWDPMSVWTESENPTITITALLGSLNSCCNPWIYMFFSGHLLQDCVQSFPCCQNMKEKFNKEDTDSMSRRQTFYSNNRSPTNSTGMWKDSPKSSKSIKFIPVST
# assayProcedure: human V1a receptor binding study (3H-Vasopressin, SPA beads)
# conditionDescription: membranes of HEK293 cells transiently transfected with human V1a receptor, Ki calculated using the Cheng-Prussoff equation, read-out: pKi hV1a (converted)
observationType: Ki (nM)
The reply should contain only the number, in nM.

In: Could you share what Ki was measured for O=C(CNC(c1ccccc1)c1ccc(Cl)cc1)N1CCC2(CC1)OCc1ccccc12 (racemic) , tested on human V1a receptor (Homo sapiens)?
Out: 9.12

In: Short answer please: Ki, human V1a receptor (Homo sapiens), entry O=C(CNC(c1ccccc1)c1ccccn1)N1CCC2(CC1)OCc1ccccc12 (racemic)
Out: 18.2

In: Which Ki is reported with human V1a receptor (Homo sapiens) for this entry: O=C(CN[C@H](c1ccc(Cl)cc1)[C@@H](O)c1ccc(N2CCOCC2)cc1)N1CCC2(CC1)OCc1ccccc12 ?
Out: 24
